# PROTOCOL_SUMMARY: method code SF, from Hansch, C. & Leo, A. (1987). Log P database [Dataset]. Pomona College Medicinal Chemistry Project.
REPORTED_METRIC: logP
Answers are plain numbers.

CC1=Nc2c(C)cccc2S(=O)(=O)N1
0.52
CNC(=O)O/N=C(\C)C(C)(C)[N+](=O)[O-]
0.66
CC(=O)C(=Cc1ccc(Cl)cc1)C(C)=O
2.32
CC(=O)Nc1cccc(/N=N/N(C)C)c1
1.61
CCOC(=O)C(=Cc1cccc(OCC)c1)C(=O)OCC
3.39

Please give logP for each item listed below.
1. CC(C)(C)CC1=Nc2ccc(Cl)cc2S(=O)(=O)N1
2. CC1=Nc2ccc(I)cc2S(=O)(=O)N1
3. CC1=Nc2cccc(Cl)c2S(=O)(=O)N1
4. Nc1cc(=O)[nH]cn1

2.71
1.61
0.62
-0.99
